System: HIV-1 46I50V
assay_text: microbe, parasite or virus in culture
Assay type: cell-based
study_conditions: MT-4, 46I50V; read-out: Cell-based assay (MT-4) EC50/nM 46I50V
Label 1 when EC50 is strictly below 70 nM; otherwise label 0.

{"molecule": "CCCCOC(=O)C(C)NP(=O)(COc1cccc(CN2C(=O)N(Cc3ccc4[nH]nc(N)c4c3)C(Cc3ccccc3)C(O)C(O)C2Cc2ccccc2)c1)NC(C)C(=O)OCCCC (stereo not shown)", "classification": 0}
{"molecule": "Nc1n[nH]c2ccc(CN3C(=O)N(Cc4cccc(OCc5ccccc5)c4)C(Cc4ccccc4)C(O)C(O)C3Cc3ccccc3)cc12 (stereo not shown)", "classification": 0}
{"molecule": "Nc1n[nH]c2ccc(CN3C(=O)N(Cc4ccc(O)cc4)C(Cc4ccccc4)C(O)C(O)C3Cc3ccccc3)cc12 (stereo not shown)", "classification": 1}
{"molecule": "Nc1n[nH]c2ccc(CN3C(=O)N(CCCCO)C(Cc4ccccc4)C(O)C(O)C3Cc3ccccc3)cc12 (stereo not shown)", "classification": 0}
{"molecule": "CCOP(=O)(COc1ccc(CC2C(O)C(O)C(Cc3ccc(OC)cc3)N(Cc3cccnc3)C(=O)N2Cc2cccnc2)cc1)OCC (stereo not shown)", "classification": 0}
{"molecule": "CCCCN1C(=O)N(Cc2ccc3[nH]nc(N)c3c2)C(Cc2ccccc2)C(O)C(O)C1Cc1ccccc1 (stereo not shown)", "classification": 1}

###

assayed_system: recombinant HIV-1 protease (Human immunodeficiency virus type 1 group M subtype B, UniProt P04585)
Construct: Enzyme: recombinant HIV-1 protease expressed in E.Coli; purchased Bachem California, Inc. H-9040; host or cells: E. coli
assay_text: biochemical
assay_endpoint: Ki (pM)

{"molecule": "Cc1ccc(C(=O)N[C@@H](Cc2ccc(OCP(=O)(OCc3ccccc3)OCc3ccccc3)cc2)[C@H](O)CN(CC(C)C)S(=O)(=O)c2ccc(N)cc2)cc1O", "result": "+ +"}
{"molecule": "CC(C)CN(CC(O)C(Cc1ccccc1)NC(=O)OC1COC2OCCC12)S(=O)(=O)c1ccc(OCP(=O)(O)Oc2ccccc2)cc1 (stereo not drawn)", "result": "+ +"}
{"molecule": "CCOC(=O)C(C)OP(=O)(Cc1ccc2c(c1)CCN(C[C@H](NC(=O)O[C@H]1CO[C@H]3OCC[C@H]31)[C@H](O)CN(CC(C)C)S(=O)(=O)c1ccc(OC)cc1)C2)Oc1ccccc1 (stereo partly drawn)", "result": "+ +"}

###

Some compounds, each annotated with its measured EC50.
Test system: recombinant HIV-1 10I 48V 54V 82A
assay_text: microbe, parasite or virus in culture
Format: cell-based
study_conditions: Human immunodeficiency virus 1, MT4, read-out: Cell-based assay (MT-4) EC50/nM 48V 54V 82A

{"compound": "CCOP(=O)(COc1ccc(CC2C(O)C(O)C(Cc3ccc(OC)cc3)N(Cc3cccc(N)c3)C(=O)N2Cc2cccc(N)c2)cc1)OCC (stereo not drawn) [OCH3/Ph-mNH2/OCH2PO3Et2]", "assayed_system": "recombinant HIV-1 10I 48V 54V 82A", "units_of_measure": "nM", "EC50": 202}
{"compound": "CCOP(=O)(CCNC(=O)Oc1ccc(CC2C(O)C(O)C(Cc3ccc(OC)cc3)N(Cc3ccc(O)cc3)C(=O)N2Cc2ccc(O)cc2)cc1)OCC (stereo not drawn) [OCH3/Ph-pOH/OCONH(CH2)2PO3Et2]", "assayed_system": "recombinant HIV-1 10I 48V 54V 82A", "units_of_measure": "nM", "EC50": 74}
{"compound": "CCOP(=O)(COc1ccc(CC2C(O)C(O)C(Cc3ccccc3)N(Cc3cccc(N)c3)C(=O)N2Cc2cccc(N)c2)cc1)OCC (stereo not drawn) [H/Ph-mNH2/OCH2PO3Et2]", "assayed_system": "recombinant HIV-1 10I 48V 54V 82A", "units_of_measure": "nM", "EC50": 168}

Cited source: patent US20040121316A1
